Target: biotinylated human Gal-3 (hGal-3) (Homo sapiens)
Sequence (P17931 whole entry): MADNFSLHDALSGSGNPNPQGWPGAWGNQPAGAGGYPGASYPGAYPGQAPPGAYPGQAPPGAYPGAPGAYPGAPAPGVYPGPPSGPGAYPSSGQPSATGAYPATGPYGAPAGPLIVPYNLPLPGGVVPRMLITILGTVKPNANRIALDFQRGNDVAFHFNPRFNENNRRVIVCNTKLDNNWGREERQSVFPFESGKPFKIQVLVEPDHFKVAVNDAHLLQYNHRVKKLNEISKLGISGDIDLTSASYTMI
Test: Competitive binding assay: biotinylated hGal-3 binding to microplate-adsorbed asialofetuin (ASF), spectrophotometric
Details: Table 9; hGal-3; read-out: IC50 (Gal-3 inhibition)
Method: If not explicitly mentioned otherwise, the inhibition data refer to the binding of biotinylated human Gal-3 (hGal-3). Biological Assay Evaluation of Compound Inhibitory Activity (IC50) The inhibitory activity of compounds is determined in competitive binding assays. Briefly, compounds are serially diluted in DMSO (working dilutions). […] The calculated IC50 values may fluctuate depending on the daily assay performance. […]
pIC50: −log10 of the molar value.
Lab note: anything with pIC50 at or over 7 counts as yes; the rest go in no.

Example entries begin here.
compound	classification
CO[C@@H]1[C@@H](n2cc(-c3cc(F)c(F)c(F)c3)nn2)[C@@H](O)[C@@H](CO)O[C@H]1S[C@@H](C(=O)N(C)c1ccccn1)C1(O)CCC(F)(F)CC1 [Example 2.41.233R.I.]	no
CN(C(=O)[C@@H](S[C@@H]1O[C@H](CO)[C@H](O)[C@H](n2cc(-c3cc(F)c(F)c(F)c3)nn2)[C@H]1O)C1(O)CCOCC1)c1ccccn1 [Example 2.41.233S.]	yes
CO[C@@H]1[C@@H](n2cc(-c3cc(F)c(F)c(F)c3)nn2)[C@@H](O)[C@@H](CO)O[C@H]1S[C@H](C(=O)N(C)c1ccccn1)C1(O)CCC(F)(F)CC1 [Example 2.41.233S.I.]	yes

input: Assess whether reported pIC50 for CN(C(=O)[C@H](S[C@@H]1O[C@H](CO)[C@H](O)[C@H](n2cc(-c3cc(F)c(F)c(F)c3)nn2)[C@H]1O)C1(O)CCOCC1)c1ccccn1 [Example 2.41.233R.] sits at 7 or higher.
output: no
